Can you tell me Kd for the items I'm about to list?
assay.system: T1, Gbp2 RRM123 (Saccharomyces cerevisiae, UniProt P25555 122-427)
T1 sequence: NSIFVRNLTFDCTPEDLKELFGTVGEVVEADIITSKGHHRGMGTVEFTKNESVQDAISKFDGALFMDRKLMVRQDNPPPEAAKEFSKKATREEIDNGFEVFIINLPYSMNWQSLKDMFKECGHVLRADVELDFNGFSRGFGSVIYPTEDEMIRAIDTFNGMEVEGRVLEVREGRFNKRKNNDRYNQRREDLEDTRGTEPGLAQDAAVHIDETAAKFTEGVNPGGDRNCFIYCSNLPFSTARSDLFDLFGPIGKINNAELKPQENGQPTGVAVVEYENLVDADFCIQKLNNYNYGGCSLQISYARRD
protocol: fluorescence anisotropy
Kindly answer with a numeric value in µM, unit omitted.

Please report the recorded Kd for TTGGTGTT (ssDNA) [d(TTGGTGTT)] .
17

Please report the recorded Kd for UUGGUGUU (ssRNA) [Selex RNA UUGGUGUU] .
3.3

meta.source: paper PMC4705658
